Parameter pIC50: see the listing below.
# target: NaV1.7 (Homo sapiens)
# Construct: expressed in transfected cells; tetracycline-inducible, kept under hygromycin and blasticidin
# test: Automated patch clamp (Qube 384), internal block of NaV1.7 in HEK293 cells
# Assay type: cell-based
# condition.label: compound in internal solution, read-out: Nav1.7 Intracellular Inhibition (IC50)
pIC50: −log10 of the molar value.

Some compounds with known pIC50 results, for comparison:
compound	value.type	test.value
Cc1cccc(C)c1NC(=O)C[n+]1cccc(-c2nn[nH]n2)c1 [Compound 53]	pIC50	4.52 to 5.00
CCOC(=O)Cn1cc(C)c[n+]1CC(=O)Nc1c(C)cccc1C [Compound 76]	pIC50	5.00 to 5.52
Cc1cccc(C)c1NC(=O)C[n+]1cc(-c2ccccc2)c2ccccc2c1 [Compound 100]	pIC50	5.52 to 6.00
CNC(=O)Cc1ccc[n+](CC(=O)Nc2c(C)cccc2C)c1 [Compound 33]	pIC50	5.52 to 6.00
Cc1cccc(C)c1NC(=O)C[n+]1cccc(OCc2ccccc2)c1 [Compound 88]	pIC50	5.00 to 5.52
CCOC(=O)CCCn1ccc[n+]1CC(=O)Nc1c(C)cccc1C [Compound 75]	pIC50	> 6.00
Cc1cccc(C)c1NC(=O)C[n+]1cccc(S(=O)(=O)N(C)C)c1 [Compound 47]	pIC50	5.52 to 6.00
Cc1cccc(C)c1NC(=O)C(Cc1ccccc1)[n+]1ccccc1 (stereo not drawn) [Compound 106]	pIC50	5.52 to 6.00

[ask] Quick check: pIC50 on NaV1.7 (Homo sapiens), item Cc1cccc(C)c1NC(=O)C[n+]1cccc(N)c1 [Compound 49] ?
[reply] 5.00 to 5.52

* * *

Parameter inhibition at 1000 µM: see the listing below.
# target: NaV1.7 (Homo sapiens)
# Construct: expressed in transfected cells; tetracycline-inducible, kept under hygromycin and blasticidin
# test: Whole cell patch clamp, external block of NaV1.7 current (compound in external solution)
# Format: cell-based
# condition.label: % inhibition at test concentration 1,000 μM, compound applied externally; read-out: Nav1.7 Extracellular Inhibition
# Method: Representative compounds of the invention were synthesized according to the described methods and tested for the ability to inhibit voltage-gated sodium channels. NaV1.7 was expressed upon induction with tetracycline. […] Once the recording was started, the voltage protocol was run at 30 second intervals for 5 minutes to get a stable baseline. […] Currents were recorded using PatchMaster software with Heka EPC10 (HEKA Electronics, Lambrecht, Germany). […]

Some compounds with known inhibition at 1000 µM results, for comparison:
Cc1cccc(C)c1NC(=O)Cn1ccc[n+]1CC(=O)Nc1c(C)cccc1C < 40%
CCOC(=O)CCCn1ccc[n+]1CC(=O)Nc1c(C)cccc1C < 40%
Cc1cccc(C)c1NC(=O)C[n+]1c(C)cccc1C.[Br-] 40 to 70%

# ---- query compound ----
[ask] Field request: inhibition at 1000 µM | item: CCOC(=O)Cn1cc(C)c[n+]1CC(=O)Nc1c(C)cccc1C
[reply] < 40%

* * *

# target: NaV1.7 (Homo sapiens, UniProt Q15858)
# Construct: expressed in transfected cells; tetracycline-inducible, kept under hygromycin and blasticidin
# Sequence (Q15858 whole entry): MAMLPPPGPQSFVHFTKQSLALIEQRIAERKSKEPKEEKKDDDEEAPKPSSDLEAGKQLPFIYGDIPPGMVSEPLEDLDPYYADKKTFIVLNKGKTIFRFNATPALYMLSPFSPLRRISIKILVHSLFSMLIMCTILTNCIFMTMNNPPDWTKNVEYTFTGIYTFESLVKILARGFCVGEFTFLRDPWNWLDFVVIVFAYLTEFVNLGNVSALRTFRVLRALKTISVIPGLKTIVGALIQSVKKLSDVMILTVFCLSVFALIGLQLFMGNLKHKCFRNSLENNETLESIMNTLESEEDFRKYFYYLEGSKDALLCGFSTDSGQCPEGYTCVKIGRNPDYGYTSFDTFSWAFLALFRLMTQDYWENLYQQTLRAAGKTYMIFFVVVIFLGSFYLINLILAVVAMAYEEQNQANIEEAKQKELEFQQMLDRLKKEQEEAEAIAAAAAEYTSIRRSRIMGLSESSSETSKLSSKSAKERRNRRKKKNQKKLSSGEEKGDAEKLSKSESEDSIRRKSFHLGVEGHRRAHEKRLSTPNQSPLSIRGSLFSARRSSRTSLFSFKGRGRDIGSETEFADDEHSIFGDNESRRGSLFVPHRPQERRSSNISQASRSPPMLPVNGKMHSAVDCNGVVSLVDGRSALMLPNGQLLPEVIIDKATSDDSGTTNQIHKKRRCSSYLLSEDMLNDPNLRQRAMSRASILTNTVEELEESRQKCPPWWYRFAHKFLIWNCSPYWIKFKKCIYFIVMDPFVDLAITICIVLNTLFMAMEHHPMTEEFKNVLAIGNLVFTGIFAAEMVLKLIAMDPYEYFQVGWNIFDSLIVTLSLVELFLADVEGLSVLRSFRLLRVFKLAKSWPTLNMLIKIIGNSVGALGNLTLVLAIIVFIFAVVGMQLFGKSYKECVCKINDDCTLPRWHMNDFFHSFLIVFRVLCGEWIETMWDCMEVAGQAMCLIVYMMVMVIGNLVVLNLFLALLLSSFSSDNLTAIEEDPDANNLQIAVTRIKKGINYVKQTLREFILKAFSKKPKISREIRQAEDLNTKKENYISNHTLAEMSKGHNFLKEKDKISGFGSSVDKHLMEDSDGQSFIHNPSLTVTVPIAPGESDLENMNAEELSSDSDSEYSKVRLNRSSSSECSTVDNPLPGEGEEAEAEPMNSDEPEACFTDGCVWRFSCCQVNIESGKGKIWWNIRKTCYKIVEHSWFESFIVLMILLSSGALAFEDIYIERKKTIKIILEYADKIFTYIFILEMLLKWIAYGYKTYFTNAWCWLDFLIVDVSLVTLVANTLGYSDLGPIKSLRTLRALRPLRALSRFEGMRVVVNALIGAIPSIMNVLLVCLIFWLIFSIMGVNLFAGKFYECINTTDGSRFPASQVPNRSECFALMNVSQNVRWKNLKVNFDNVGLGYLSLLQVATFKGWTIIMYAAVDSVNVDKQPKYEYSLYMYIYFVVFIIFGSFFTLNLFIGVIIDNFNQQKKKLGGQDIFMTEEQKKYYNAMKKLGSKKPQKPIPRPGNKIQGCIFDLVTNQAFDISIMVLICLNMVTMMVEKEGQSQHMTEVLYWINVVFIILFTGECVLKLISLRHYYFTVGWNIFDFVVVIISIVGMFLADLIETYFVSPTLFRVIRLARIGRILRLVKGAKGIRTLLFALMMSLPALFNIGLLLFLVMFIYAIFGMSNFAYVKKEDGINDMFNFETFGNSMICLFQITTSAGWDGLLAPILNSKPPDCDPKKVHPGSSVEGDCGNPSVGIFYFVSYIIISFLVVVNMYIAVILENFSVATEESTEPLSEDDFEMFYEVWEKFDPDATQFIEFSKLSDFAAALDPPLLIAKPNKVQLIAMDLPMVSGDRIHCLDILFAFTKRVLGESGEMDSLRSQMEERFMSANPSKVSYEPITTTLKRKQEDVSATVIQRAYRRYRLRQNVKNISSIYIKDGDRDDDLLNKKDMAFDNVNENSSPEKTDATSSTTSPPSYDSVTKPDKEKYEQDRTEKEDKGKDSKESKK
# test: Automated patch clamp (Qube 384), internal block of NaV1.7 in HEK293 cells
# Assay type: cell-based
# condition.label: compound in internal solution, read-out: Nav1.7 Intracellular Inhibition (IC50)
# Description: NaV1.7 was expressed in HEK293 cells upon induction with tetracycline. […] Before experiments, cells were washed with DPBS (VWR, Radnor, Pa.), digested with Detachin (VWR Radnor, Pa.) and then triturated 10 times in CHO Serum-Free Media (VWR Radnor, Pa.) to resuspend the cells and to break apart cell aggregates. Cells were counted and the final concentration was set at 2-5 million cells per mL. […]
pIC50: −log10 of the molar value.
value.type: pIC50

Some compounds with known pIC50 results, for comparison:
compound	test.value
Cc1cccc(C)c1NC(=O)C[n+]1cccn1C1CC1 [Compound 68]	5.52 to 6.00
Cc1cccc(C)c1NC(=O)C[n+]1cc2ccccc2n1C [Compound 54]	5.00 to 5.52
Cc1cccc(C)c1NC(=O)C[n+]1c(C)cccc1C [Compound 6]	5.52 to 6.00
CCOC(=O)c1cc(C)[n+](CC(=O)Nc2c(C)cccc2C)n1C [Compound 84]	5.00 to 5.52
Cc1cccc(C)c1NC(=O)C[n+]1cccn1C1CCC1 [Compound 72]	5.00 to 5.52

[ask] Field request: pIC50 | item: Cc1cccc(C)c1NC(=O)C[n+]1c(C)ccc(-c2ccccc2)c1C [Compound 23]
[reply] > 6.00

[ask] Field request: pIC50 | item: CCNc1ccc[n+](CC(=O)Nc2c(C)cccc2C)c1 [Compound 50]
[reply] 5.52 to 6.00

[ask] Field request: pIC50 | item: CCCn1c(C)cc[n+]1CC(=O)Nc1c(C)cccc1C [Compound 81]
[reply] 5.52 to 6.00
